Target: AT4G31550 (Arabidopsis thaliana, UniProt Q9SV15 228-325)
Sequence (Q9SV15 228-325): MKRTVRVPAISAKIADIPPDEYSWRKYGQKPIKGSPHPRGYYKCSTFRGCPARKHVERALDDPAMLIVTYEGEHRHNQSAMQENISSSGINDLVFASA
Experiment: DPI-ELISA; DPI-ELISA, streptavidin 384-well plate, 1-2 pmol biotinylated dsDNA per well, crude native E. coli extract, anti-His detection; buffer as in Brand et al. [46],; high values mean tight binding
Details: tags: C-terminal His (pET-DEST42); label: 5' biotin on forward strand; dsDNA, one strand shown

# seq, experimental-system, measurement-units, binding signal
records = [
    ("AAAAAATTTCTATTTCATCTTTGCCCAAAA", "AT4G31550 (Arabidopsis thaliana, UniProt Q9SV15 228-325)", "absorbance", 0.72),
    ("AAAAAATAGGCGTTATGGCTAACACCAAAA", "AT4G31550 (Arabidopsis thaliana, UniProt Q9SV15 228-325)", "absorbance", 0.685),
    ("AAAAAATTCCTGTCCGCTCTCGCTCCAAAA", "AT4G31550 (Arabidopsis thaliana, UniProt Q9SV15 228-325)", "absorbance", 0.685),
    ("AAAAAATACGTCTACGTGGTTGTCGTAAAA", "AT4G31550 (Arabidopsis thaliana, UniProt Q9SV15 228-325)", "absorbance", 0.72),
    ("AAAAAAGAAATACCAGAAACTATCATAAAA", "AT4G31550 (Arabidopsis thaliana, UniProt Q9SV15 228-325)", "absorbance", 0.705),
    ("AAAAAAACCGATTACCATTTTTACTGAAAA", "AT4G31550 (Arabidopsis thaliana, UniProt Q9SV15 228-325)", "absorbance", 0.695),
    ("AAAAAATAATTACAAGTCGGCTCCACAAAA", "AT4G31550 (Arabidopsis thaliana, UniProt Q9SV15 228-325)", "absorbance", 0.69),
    ("AAAAAAACCCGGCCGCCATGGTAGTAAAAA", "AT4G31550 (Arabidopsis thaliana, UniProt Q9SV15 228-325)", "absorbance", 0.7),
    ("AAAAAATTTTGTGGTGTTTCGCCACCAAAA", "AT4G31550 (Arabidopsis thaliana, UniProt Q9SV15 228-325)", "absorbance", 0.715),
    ("AAAAAACTAACCGTCGCAGGCGTGTGAAAA", "AT4G31550 (Arabidopsis thaliana, UniProt Q9SV15 228-325)", "absorbance", 0.715),
]
